- assay system: Nucleotide-binding oligomerization domain-containing protein 1, Homo sapiens (UniProt Q9Y239)
- Sequence (whole entry): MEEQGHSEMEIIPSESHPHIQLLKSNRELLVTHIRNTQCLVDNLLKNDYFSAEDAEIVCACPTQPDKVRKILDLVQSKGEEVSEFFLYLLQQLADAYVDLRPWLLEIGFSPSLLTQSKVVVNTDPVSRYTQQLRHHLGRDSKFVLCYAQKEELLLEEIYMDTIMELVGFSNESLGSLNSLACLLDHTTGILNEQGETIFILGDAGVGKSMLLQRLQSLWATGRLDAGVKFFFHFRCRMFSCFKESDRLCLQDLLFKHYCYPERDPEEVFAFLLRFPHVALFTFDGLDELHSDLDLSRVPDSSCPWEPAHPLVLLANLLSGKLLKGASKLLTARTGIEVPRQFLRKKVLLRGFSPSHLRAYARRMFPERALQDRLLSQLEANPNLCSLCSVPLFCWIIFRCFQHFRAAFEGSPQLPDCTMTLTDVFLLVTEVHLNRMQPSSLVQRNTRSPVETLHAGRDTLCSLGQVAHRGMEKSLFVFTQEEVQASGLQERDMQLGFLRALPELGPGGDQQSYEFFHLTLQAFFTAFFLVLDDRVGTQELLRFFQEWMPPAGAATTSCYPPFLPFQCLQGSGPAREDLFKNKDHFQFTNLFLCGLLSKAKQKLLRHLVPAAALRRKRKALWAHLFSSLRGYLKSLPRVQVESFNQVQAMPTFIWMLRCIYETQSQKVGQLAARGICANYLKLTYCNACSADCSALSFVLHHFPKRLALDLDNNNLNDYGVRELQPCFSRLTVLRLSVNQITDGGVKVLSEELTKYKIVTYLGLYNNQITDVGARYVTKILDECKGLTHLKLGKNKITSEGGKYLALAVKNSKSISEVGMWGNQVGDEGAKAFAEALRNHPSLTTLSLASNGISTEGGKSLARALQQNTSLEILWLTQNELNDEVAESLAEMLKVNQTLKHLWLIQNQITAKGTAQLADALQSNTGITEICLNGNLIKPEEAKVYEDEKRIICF
- experimental details: inhibition of NOD1-driven NF-kB reporter – cell-based, luminescence, uHTS, primary screen (AID 1578)
Out of some 290,000 compounds screened, about 3,000 (1%) were called active. The entries come from a sample that favours actives as a whole.
quantity measured: outcome

>>> meas_value("Cc1csc2ncnc(N3CCN(C(=S)Nc4ccc(F)cc4F)CC3)c12")
"active"
>>> meas_value("Cc1ccc(C(=O)O/N=C(\\N)c2ccccn2)c(C)c1")
"active"
>>> meas_value("COc1ccc(C2C(O)C(c3c[nH]c4ccccc34)=NN2C(=O)CCl)cc1 (configuration not stated)")
"active"
>>> meas_value("Cc1cccc(Sc2c(C=O)c3ccccc3n2C)c1")
"active"
>>> meas_value("O=C(Nc1nc(-c2ccccn2)cs1)c1cc(Cl)ccc1[N+](=O)[O-]")
"active"
>>> meas_value("COc1ccc(-c2csc3ncnc(NCCO)c23)cc1")
"active"
>>> meas_value("S=c1[nH]nc(-c2cc(-c3ccccc3)n[nH]2)n1/N=C/C(Br)=C/c1ccccc1")
"active"
>>> meas_value("CC1CCCCN1S(=O)(=O)c1ccc(C(=O)Nc2nnc(-c3ccccc3Cl)o2)cc1 (configuration not stated)")
"active"
>>> meas_value("CC(=O)c1c(C)[nH]c(C(=O)COC(=O)c2cccc(S(=O)(=O)N(C)c3ccccc3)c2)c1C")
"active"
>>> meas_value("O=C(/C=C/c1ccco1)Oc1cc(Br)cc(/C=N/NC(=O)c2ccccc2O)c1")
"active"
>>> meas_value("CCOC(=O)/C=C/C(=O)Nc1cccc([N+](=O)[O-])c1")
"active"
>>> meas_value("Fc1ccccc1/C=N/Nc1nc(-c2ccccn2)nc2ccccc12")
"active"
>>> meas_value("CN(Cc1ccccc1)S(=O)(=O)c1nnc(NC(=O)c2ccc(F)cc2)s1")
"active"
>>> meas_value("Cc1cccc(NC(=O)/C=C/c2ccc([N+](=O)[O-])s2)c1")
"active"
>>> meas_value("O=c1cc(C(F)(F)F)[nH]c2ccc(C(F)(F)F)cc12")
"active"
>>> meas_value("COc1ccc(CCNC(=S)N2CCC(Cc3ccccc3)CC2)cc1OC")
"active"
>>> meas_value("CCN1/C(=C/C=C/C=C/C=C/c2sc3ccccc3[n+]2CC)Sc2ccccc21.[I-]")
"active"
>>> meas_value("OCCCNc1ncnc2scc(-c3ccc(Cl)cc3)c12")
"active"
>>> meas_value("Cc1csc2ncnc(N3CCN(C(=S)Nc4ccc(C(F)(F)F)cc4)CC3)c12")
"active"
>>> meas_value("O=[N+]([O-])c1ccc(N/N=C/c2sc(N3CCOCC3)nc2-c2ccccc2)c(S(=O)(=O)Nc2ccccc2Cl)c1")
"active"
>>> meas_value("Cc1ccc(Sc2c(C=O)c3ccccc3n2C)cc1")
"active"
>>> meas_value("Cn1cc([N+](=O)[O-])c(C(=O)Nc2nc(-c3ccc(Cl)cc3)cs2)n1")
"active"
